Test system: mTORC1 over mTORC2
Experiment: mTORC1 over mTORC2 selectivity by comparing pS6K1 and pAKT IC50
Type: cell-based
Settings: by comparing pS6K1 and pAKT IC50, 90 min
Description: Assay Protocol: • 1. Seed MCF-7 cells in Corning 3701 plate and incubate for 20˜24 hour. 12,000˜16,000 cells will be seeded in 36 μL medium per well. • 2. Change the culture medium with fresh medium and incubate for another 2 hours. • 3. Add 12 μL (4×) compounds into the cell plate by HAMILTON. Final DMSO concentration is 0.5%. Incubate for 90 minutes. • 4. Aspirate 38 μL by HAMILTON, 10 μL rest per well. • 5. […] Count the plate by EnSpire Multimode Plate Reader […]
measurement kind: mTORC1 selective @ 90 min

molecule	measurement kind	value reported
CO[C@@H]1C[C@H](C[C@@H](C)[C@@H]2CC(=O)[C@H](C)/C=C(\C)[C@@H](O)[C@@H](OC)C(=O)[C@H](C)C[C@H](C)/C=C/C=C/C=C(\C)[C@H](OCC3COCCO3)C[C@@H]3CC[C@@H](C)[C@@](O)(O3)C(=O)C(=O)N3CCCC[C@H]3C(=O)O2)CC[C@H]1OCCCO (stereo partly drawn) [I-92]	mTORC1 selective @ 90 min	Yes
CO[C@@H]1/C(C)=C/[C@@H](C)C(=O)C[C@@H]([C@H](C)C[C@@H]2CC[C@@H](O)[C@H](OC)C2)OC(=O)[C@@H]2CCCCN2C(=O)C(=O)[C@]2(O)O[C@@H](CC[C@H]2C)C[C@H](OCCOC2COC2)/C(C)=C/C=C/C=C/[C@@H](C)C[C@@H](C)C(=O)[C@@H]1OC [I-97]	mTORC1 selective @ 90 min	No
CO[C@@H]1C[C@H](C[C@@H](C)[C@@H]2CC(=O)[C@H](C)/C=C(\C)[C@@H](O)[C@@H](OC)C(=O)[C@H](C)C[C@H](C)/C=C/C=C/C=C(\C)C(OCCOC3COC3)C[C@@H]3CC[C@@H](C)[C@@](O)(O3)C(=O)C(=O)N3CCCC[C@H]3C(=O)O2)CC[C@H]1OP(C)(C)=O (stereo partly drawn) [I-89]	mTORC1 selective @ 90 min	Yes

----------
test system: p-p70 S6 Kinase (Thr389) in MCF-7 cells; assay: AlphaLISA Ultra pS6K1 assay; assay type: cell-based; details: Homo sapiens, 1.5 h; MCF7 cells, 90 min
measurement kind: IC50

Before answering, review these 2 worked examples.
molecule	assay system	IC50
CO[C@@H]1C[C@H](C[C@@H](C)[C@@H]2CC(=O)[C@H](C)/C=C(\C)[C@@H](O)[C@@H](OC)C(=O)[C@H](C)C[C@H](C)/C=C/C=C/C=C(\C)[C@H](OCC3COCCO3)C[C@@H]3CC[C@@H](C)[C@@](O)(O3)C(=O)C(=O)N3CCCC[C@H]3C(=O)O2)CC[C@H]1OC(F)F (stereo partly drawn) [I-10]	p-p70 S6 Kinase (Thr389) in MCF-7 cells	0.01 to 0.1 µM
CO[C@@H]1/C(C)=C/[C@@H](C)C(=O)C[C@@H]([C@H](C)C[C@@H]2CC[C@@H](OC)[C@H](OC)C2)OC(=O)[C@@H]2CCCCN2C(=O)C(=O)[C@]2(O)O[C@@H](CC[C@H]2C)C[C@@H](OCC2COCCO2)/C(C)=C/C=C/C=C/[C@@H](C)C[C@@H](C)C(=O)[C@@H]1OC (stereo partly drawn) [I-39]	p-p70 S6 Kinase (Thr389) in MCF-7 cells	0.1 to 1 µM

For the next question, use this molecule.
Print p-p70 S6 Kinase (Thr389) in MCF-7 cells IC50 for COCCOCCO[C@@H]1C[C@@H]2CC[C@@H](C)[C@@](O)(O2)C(=O)C(=O)N2CCCC[C@H]2C(=O)O[C@H]([C@H](C)C[C@@H]2CC[C@@H](O)[C@H](OC)C2)CC(=O)[C@H](C)/C=C(\C)[C@@H](OC)[C@@H](OC)C(=O)[C@H](C)C[C@H](C)/C=C/C=C/C=C/1C [I-48] . 0.001 to 0.01 µM
